system: S. aureus; assay: Growth inhibition curves / MICs in S. aureus cultures (strain not named or summary over strains); format: cell-based, Staphylococcus aureus; details: S. aureus cultures, optical density (OD) over 18 h; FIG. 1b
experimental endpoint: bacterial growth inhibition

Lab note: substance mU-mU-mU-mU-T-T-Ge [TOUCAN 7mGe] tested on S. aureus; recorded bacterial growth inhibition was 96%

---

tested on: S. aureus ATCC 29213 (MSSA); experiment: Broth microdilution MIC and growth inhibition; format: cell-based, Staphylococcus aureus; conditions: Staphylococcus aureus; Table 1; S. aureus ATCC 29213; read-out: MIC
Reported MIC values for the following compounds.
Entry rule: numbers only, all in µg/mL.

compound: O=c1[nH]c(=O)n([C@H]2C[C@H](O)[C@@H](CO)O2)cc1F [Floxuridine, reference compound]
test system: S. aureus ATCC 29213 (MSSA)
measure unit: µg/mL
MIC: 0.08

The record that follows has no MIC shown yet.
Nc1ccn([C@@H]2O[C@H](CO)[C@@H](O)C2(F)F)c(=O)n1 [Gemcitabine, reference compound] yielded MIC of 0.004

---

system: S. aureus ATCC 29213 (MSSA); assay: Broth microdilution MIC and growth inhibition; type: cell-based, Staphylococcus aureus; conditions: Staphylococcus aureus; Table 1; S. aureus ATCC 29213; read-out: MIC
Reported MIC values for the following molecules.

Observe how each entry below is paired with its result.
sample smiles: Nc1ncnc2c1ncn2[C@@H]1O[C@H](CO)[C@@H](O)[C@@H]1O
test system: S. aureus ATCC 29213 (MSSA)
MIC: > 40 µg/mL
//
sample smiles: O=c1[nH]c(=O)n([C@H]2C[C@H](O)[C@@H](CO)O2)cc1I
test system: S. aureus ATCC 29213 (MSSA)
MIC: > 40 µg/mL

The record that follows has no MIC shown yet.
"Nc1ccn([C@@H]2O[C@H](CO)[C@@H](O)[C@@H]2O)c(=O)n1" yielded MIC of > 40 µg/mL
